Biological target: T1, EsCas13d, nuclease-dead (Eubacterium siraeum, UniProt B0MS50, R295A;H300A;R849A;H854A)
T1 sequence: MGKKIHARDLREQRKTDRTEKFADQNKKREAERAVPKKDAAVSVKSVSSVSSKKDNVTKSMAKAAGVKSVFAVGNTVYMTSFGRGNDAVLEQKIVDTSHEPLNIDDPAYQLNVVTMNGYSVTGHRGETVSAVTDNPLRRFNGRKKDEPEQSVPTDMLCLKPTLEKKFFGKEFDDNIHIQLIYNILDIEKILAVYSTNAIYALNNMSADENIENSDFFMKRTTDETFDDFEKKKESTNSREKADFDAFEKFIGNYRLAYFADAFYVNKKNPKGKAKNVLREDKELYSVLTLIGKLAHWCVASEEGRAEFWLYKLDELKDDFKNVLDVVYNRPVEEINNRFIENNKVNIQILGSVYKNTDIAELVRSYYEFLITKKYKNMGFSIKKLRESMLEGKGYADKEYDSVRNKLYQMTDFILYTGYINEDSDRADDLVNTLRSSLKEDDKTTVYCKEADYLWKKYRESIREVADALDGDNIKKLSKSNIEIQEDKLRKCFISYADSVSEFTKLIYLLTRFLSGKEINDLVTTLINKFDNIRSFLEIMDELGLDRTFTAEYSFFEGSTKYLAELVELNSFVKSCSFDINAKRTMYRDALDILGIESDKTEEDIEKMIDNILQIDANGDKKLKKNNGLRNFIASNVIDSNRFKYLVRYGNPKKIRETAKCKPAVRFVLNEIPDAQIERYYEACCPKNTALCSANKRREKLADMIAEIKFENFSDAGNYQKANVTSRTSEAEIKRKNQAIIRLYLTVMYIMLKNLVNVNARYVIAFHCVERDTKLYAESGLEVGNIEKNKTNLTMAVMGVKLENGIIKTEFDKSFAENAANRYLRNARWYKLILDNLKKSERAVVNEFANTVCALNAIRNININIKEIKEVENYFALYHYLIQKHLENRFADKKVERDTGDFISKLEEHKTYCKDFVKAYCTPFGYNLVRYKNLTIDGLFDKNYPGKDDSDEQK
Experiment: crRNA (strand 1, pre-loaded); Mg2+; 40 mM Tris-HCl pH 7.5, 150 mM NaCl, 6 mM MgCl2, 1 mM DTT, 0.1% Tween-20, 0.2 mg/ml BSA; 25 C; 10 min per concentration, then washed
Details: tags: His6-TwinStrep-SUMO cleaved; N-terminal SNAP kept (SNAP-Surface 488); label: 3' end held by stalled T7 RNA polymerase
PROPERTY NAME: pKd
Quick note: pKd means taking -log10 of the concentration in moles per liter.

Please review the following examples before continuing.
target 1 insG 3' of 9,insG 3' of 6 (mixed) RNA 1: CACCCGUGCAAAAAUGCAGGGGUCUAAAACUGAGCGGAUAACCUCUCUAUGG RNA 2: GGGAAUGGAUCCACAUCUACGAAUUCGUACCAUAGAGAGGUUAGUCCGGCUCACCGAGAUCGGAAGAGCACACGU; 7.95
target 2 MT 5'PFS GCG 3'PFS CAA (mixed) RNA 1: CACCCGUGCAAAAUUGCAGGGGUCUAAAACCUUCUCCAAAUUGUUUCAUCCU RNA 2: GGGAAUGGAUCCACAUCUACGAAUUCGCGAGGAUGAAACAAUUUGGAGAAGCAAAGAUCGGAAGAGCACACGU; 8.01
target 1 C7U,A14G (mixed) RNA 1: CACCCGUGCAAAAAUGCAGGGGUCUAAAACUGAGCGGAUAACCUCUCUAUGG RNA 2: GGGAAUGGAUCCACAUCUACGAAUUCGUACCAUAGAGGGGUUAUUCGCUCACCGAGAUCGGAAGAGCACACGU; 7.78

Which pKd is listed for target 1 insC 3' of 15,insC 3' of 12 (mixed) RNA 1: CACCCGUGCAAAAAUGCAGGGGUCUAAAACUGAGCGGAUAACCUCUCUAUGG RNA 2: GGGAAUGGAUCCACAUCUACGAAUUCGUACCAUAGAGCAGGCUUAUCCGCUCACCGAGAUCGGAAGAGCACACGU ?
7.22

# iterate: target 2 MT 5'PFS CGA 3'PFS AAA (mixed) RNA 1: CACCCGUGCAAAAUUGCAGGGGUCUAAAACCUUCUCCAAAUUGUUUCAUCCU RNA 2: GGGAAUGGAUCCACAUCUACGAAUUCCGAAGGAUGAAACAAUUUGGAGAAGAAAAGAUCGGAAGAGCACACGU
7.89

# iterate: target 1 MT 5'PFS GAA 3'PFS CCG (mixed) RNA 1: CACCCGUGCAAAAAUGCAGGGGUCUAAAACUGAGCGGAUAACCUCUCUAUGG RNA 2: GGGAAUGGAUCCACAUCUACGAAUUCGAACCAUAGAGAGGUUAUCCGCUCACCGAGAUCGGAAGAGCACACGU
7.68

# iterate: target 1 C2U,C7U (mixed) RNA 1: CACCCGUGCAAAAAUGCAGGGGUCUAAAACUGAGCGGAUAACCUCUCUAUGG RNA 2: GGGAAUGGAUCCACAUCUACGAAUUCGUACCAUAGAGAGGUUAUUCGCUUACCGAGAUCGGAAGAGCACACGU
8.19

# iterate: target 2 MT 5'PFS GUC 3'PFS UAA (mixed) RNA 1: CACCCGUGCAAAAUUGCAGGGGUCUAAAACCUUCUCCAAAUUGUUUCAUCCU RNA 2: GGGAAUGGAUCCACAUCUACGAAUUCGUCAGGAUGAAACAAUUUGGAGAAGUAAAGAUCGGAAGAGCACACGU
8.03
